Target: UniProt P36896
Sequence (P36896 24-505): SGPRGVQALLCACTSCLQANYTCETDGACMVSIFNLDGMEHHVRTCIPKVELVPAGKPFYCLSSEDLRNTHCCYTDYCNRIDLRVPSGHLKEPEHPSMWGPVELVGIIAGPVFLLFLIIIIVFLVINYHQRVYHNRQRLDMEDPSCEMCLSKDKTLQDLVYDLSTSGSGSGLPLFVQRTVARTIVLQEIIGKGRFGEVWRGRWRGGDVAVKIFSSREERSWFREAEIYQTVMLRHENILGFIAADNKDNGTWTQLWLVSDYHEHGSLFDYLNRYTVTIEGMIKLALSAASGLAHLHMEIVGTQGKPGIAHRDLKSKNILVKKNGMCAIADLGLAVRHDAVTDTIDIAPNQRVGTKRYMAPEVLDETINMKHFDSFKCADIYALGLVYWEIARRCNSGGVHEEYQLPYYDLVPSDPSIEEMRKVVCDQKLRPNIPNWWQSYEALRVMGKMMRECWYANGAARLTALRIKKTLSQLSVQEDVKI
Endpoint label: pIC50
By convention, pIC50 is the negative base-10 log of a molar concentration.

// solved cases for pIC50 follow
NS(=O)(=O)c1ccc(-c2cnc3cc(-c4ccc(C5CNCCN5)cc4)ccn23)c2ccccc12 (stereo not shown) [Compound 37] :: 6.41
c1cc(-c2cnc3cc(-c4ccc(C5CNCCN5)cc4)ccn23)c2cccnc2c1 (stereo not shown) [Compound 33] :: 6.11
Cc1cc(-c2cnc3cc(-c4ccc(C5CNCCN5)cc4)ccn23)c2cc(F)ccc2n1 (stereo not shown) [Compound 18] :: 6.41

Shift focus to the following entry.
Identify the reported pIC50 for the following entry. Cc1cc(-c2cnc3cc(-c4ccc(C5COC6(CCNC6)CN5)cc4)ccn23)c2cc(F)cc(F)c2n1 (stereo not shown) [Compound 27]
5.69

----------
Quick reference for pIC50 among some molecules
Molecular target: ALK2 (R206H) (Homo sapiens, UniProt Q04771, R206H)
Sequence (Q04771 21-509 R206H): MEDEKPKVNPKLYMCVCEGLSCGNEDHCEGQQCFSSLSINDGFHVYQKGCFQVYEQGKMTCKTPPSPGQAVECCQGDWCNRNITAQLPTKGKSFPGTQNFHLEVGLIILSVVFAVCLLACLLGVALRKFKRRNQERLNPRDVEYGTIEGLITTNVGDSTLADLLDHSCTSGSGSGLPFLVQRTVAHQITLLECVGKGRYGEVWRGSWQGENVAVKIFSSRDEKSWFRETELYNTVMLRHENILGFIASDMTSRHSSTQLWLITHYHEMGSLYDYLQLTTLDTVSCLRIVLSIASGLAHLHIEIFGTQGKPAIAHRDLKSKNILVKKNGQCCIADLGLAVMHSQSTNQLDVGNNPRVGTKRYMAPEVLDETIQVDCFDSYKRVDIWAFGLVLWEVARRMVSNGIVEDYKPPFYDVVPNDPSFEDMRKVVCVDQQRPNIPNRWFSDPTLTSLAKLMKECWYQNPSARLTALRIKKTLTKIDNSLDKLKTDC
Test: Kinase assay (33P-ATP filter-binding), ALK2 R206H
Conditions: R206H mutant, 20 mM; read-out: Kinase Selectivity ALK2 (R206H, 20 mM)
Experimental: The kinase assays were carried out briefly as follows. Substrate was prepared in Base Reaction Buffer (20 mM Hepes (pH 7.5), 10 mM MgCl2, 1 mM EGTA, 0.02% Brij35, 0.02 mg/ml BSA, 0.1 mM Na3VO4, 2 mM DTT, 1% DMSO). The indicated kinases was delivered into the substrate solution and allowed to gently mix. […] After 2 hours, the reactions were spotted onto P81 ion exchange paper and the kinase activity is detected by the filter-binding method.
Note on units: pIC50 is unitless, being -log10 of a concentration expressed in mol/L.

Check out these entries, answers already filled in.
c1cc(-c2cnc3cc(-c4ccc(C5CNCCN5)cc4)ccn23)ccn1 (centres unmarked) [Compound 30] :: 7.01
Cc1cc(-c2cnc3cc(-c4ccc(N5CCC6(CCCCN6)CC5)cc4)ccn23)c2cc(F)cc(F)c2n1 [Compound 25] :: 6.59
Cc1cc(-c2cnc3cc(-c4ccc(C5COC6(CCNC6)CN5)cc4)ccn23)c2cc(F)cc(F)c2n1 (centres unmarked) [Compound 27] :: 6.49

Entry Cc1cc(-c2cnc3cc(-c4ccc(N5CCNC6(CCC6)C5)cc4)ccn23)c2cc(F)cc(F)c2n1 [Compound 4] needs its pIC50 filled in; supply it.
7.59

Determine from records and report pIC50 for Cc1cc(-c2cnc3cc(-c4ccc(N5CCC6(CCCNC6)C5)cc4)ccn23)c2cc(F)cc(F)c2n1 (centres unmarked) [Compound 6]
6.66

Look up and report measured pIC50 for this entry: Cc1cc(-c2cnc3cc(-c4ccc(N5CCNC(C)(C)C5)cc4)ccn23)c2cc(F)cc(F)c2n1 [Compound 26]
7.10

Using the record for Cc1cc(-c2cnc3cc(-c4ccc(N5CCC6(CCCNC6)CC5)cc4)ccn23)c2cc(F)cc(F)c2n1 [Compound 3] , state its measured pIC50.
5.95

Look up and state reported pIC50 for Cc1cc(-c2cnc3cc(N4CC5(CCNCC5)C4)ccn23)c2cc(F)cc(F)c2n1 [Compound 24]
7.23

For the molecule c1ncc2scc(-c3cnc4cc(-c5ccc(C6CNCCN6)cc5)ccn34)c2n1 (centres unmarked) [Compound 35] , give its measured pIC50 value.
6.67

State, in one line, measured pIC50 of Cc1cc(-c2cnc3cc(-c4ccc(N5CCN(C)CC5)cc4)ccn23)c2cccnc2n1 [Compound 28]
6.98
